The reported measurements were obtained from patent US20230078764A1.

biological target: human SCD5 (Homo sapiens, UniProt Q86SK9); construct: expressed in transfected cells; host or cells: yeast strain with OLE1 deleted, plasmid-borne human SCD5 (selected in SD-Ura); experiment: Growth inhibition of yeast strain expressing human SCD5 as sole desaturase (OLE1 deleted), OD600 readout; assay type: cell-based; details: yeast strain expressing human SCD5 as sole desaturase; growth (OD600) after 40 h at 30° C.; read-out: SCD5 IC50
Sequence (Q86SK9 whole entry): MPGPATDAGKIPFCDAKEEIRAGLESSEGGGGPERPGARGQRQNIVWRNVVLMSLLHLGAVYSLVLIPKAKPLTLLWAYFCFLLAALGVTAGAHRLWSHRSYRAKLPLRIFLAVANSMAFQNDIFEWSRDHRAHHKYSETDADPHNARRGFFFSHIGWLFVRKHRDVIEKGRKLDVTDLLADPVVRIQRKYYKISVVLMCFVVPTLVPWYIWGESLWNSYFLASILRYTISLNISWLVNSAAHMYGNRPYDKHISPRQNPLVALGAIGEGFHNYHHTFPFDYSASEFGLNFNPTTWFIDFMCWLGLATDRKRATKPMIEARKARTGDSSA
Under this convention, TRUE denotes IC50 strictly below 2 µM and FALSE denotes IC50 at or above 2 µM.

>>> group_label("O=C(Nc1ccc(Cc2ccc(F)c(Cl)c2)cn1)c1ccc(=O)n(C2CC2)n1")
"TRUE"
>>> group_label("CN1N=C(C(=O)Nc2ccc(CC3CCCCC3)cn2)CCC1=O")
"FALSE"
>>> group_label("CC(c1cccc(F)c1)c1cnc(NC(=O)C2=NN(C)C(=O)CC2)s1 (stereo not drawn)")
"TRUE"
>>> group_label("O=C(Nc1ccc(Cc2cccc(Cl)c2)cn1)c1ccc(Br)nc1")
"FALSE"
>>> group_label("N#Cc1cc(Cl)cc(Cc2ccc(NC(=O)c3ccnnc3)nc2)c1")
"TRUE"
>>> group_label("Cn1cc(C(=O)Nc2ccc(Cc3cc(F)cc(F)c3)cn2)ncc1=O")
"TRUE"
>>> group_label("Cn1cc(C(=O)Nc2ccc(CNc3cccc(Cl)c3)cn2)ccc1=O")
"TRUE"
>>> group_label("Cn1cc(C(=O)Nc2ccc(C3(c4ccc(F)c(F)c4)CC3)cn2)ccc1=O")
"FALSE"
>>> group_label("CC(O)c1cnc(C(=O)Nc2ccc(Cc3ccc(F)c(F)c3)cn2)nc1 (stereo not drawn)")
"TRUE"
